Record form. Attribute: MIC. Fill in for each entry.
# Test system: Mycobacterium avium
# Method: Minimum inhibitory concentration required against Mycobacterium avium isolate from patient number MAC100
# Assay type: functional

Quick one: MIC of "COc1ccc(CCCCC(=O)O)cc1Cc1cnc(N)nc1N" ?
> 32 µg/mL

Record: "COc1ccc(C#CCCCCC(=O)O)cc1Cc1cnc(N)nc1N"
4 µg/mL

Can you handle "COc1ccc(C#Cc2ccc(C(=O)O)cc2)cc1Cc1cnc(N)nc1N" next?
> 64 µg/mL

Entry "CCCCCCCOc1ccc(OC)c(Cc2cnc(N)nc2N)c1" please
8 µg/mL

Consider next the compound "COc1ccc(C#CCCCC(=O)O)cc1Cc1cnc(N)nc1N" in the same way.
8 µg/mL

Request: "COc1ccc(C#Cc2cccc(C(=O)O)c2)cc1Cc1cnc(N)nc1N"
> 64 µg/mL

---

# Test system: Mycobacterium avium
# Method: Minimum inhibitory concentration required against Mycobacterium avium isolate from patient number MAC100
# Assay type: functional
Assay Readout: MIC (µg/mL)
Respond with the bare value in µg/mL.

Look up MIC with Mycobacterium avium for this molecule: "COc1ccc(C#CCCC(=O)O)cc1Cc1cnc(N)nc1N"
8

Thanks! And "COc1ccc(OCCCCCCC(=O)O)cc1Cc1cnc(N)nc1N" ?
16

Next up: "COc1ccc(OCCCC(=O)O)cc1Cc1cnc(N)nc1N"
16

---

Would you kindly list MIC for each of these molecules?
# Test system: Mycobacterium avium
# Method: Minimum inhibitory concentration required against Mycobacterium avium isolate from patient number MAC100
# Assay type: functional

Reported MIC for "COc1ccc(CCCCCCC(=O)O)cc1Cc1cnc(N)nc1N" : what is it?
> 32 µg/mL

Okay, and "COc1ccc(C#Cc2ccccc2C(=O)O)cc1Cc1cnc(N)nc1N" ?
> 64 µg/mL

Now consider "COc1ccc(OCc2cccc(C(=O)O)c2)cc1Cc1cnc(N)nc1N" .
> 32 µg/mL

---

# Tested on: Mycobacterium avium
# Method: Minimum inhibitory concentration required against Mycobacterium avium isolate from patient number MAC108
# Type: functional
Assay Readout: MIC

Item under review: "COc1ccc(C#CCCCCC(=O)O)cc1Cc1cnc(N)nc1N" . Reported MIC?
> 32 µg/mL

Also, "COc1ccc(C#Cc2cccc(C(=O)O)c2)cc1Cc1cnc(N)nc1N" please.
> 64 µg/mL

What do you have for "COc1ccc(OCCCCC(=O)O)cc1Cc1cnc(N)nc1N" ?
> 32 µg/mL

Again, but for "COc1ccc(C#Cc2ccccc2C(=O)O)cc1Cc1cnc(N)nc1N"
> 64 µg/mL

Thanks! And "COc1ccc(CCCCCC(=O)O)cc1Cc1cnc(N)nc1N" ?
> 32 µg/mL

Now give it for "COc1ccc(OCCCCCCC(=O)O)cc1Cc1cnc(N)nc1N" too.
> 32 µg/mL

Entry "COc1ccc(OCc2cccc(C(=O)O)c2)cc1Cc1cnc(N)nc1N" please
> 32 µg/mL

---

For each of the compounds below, state its MIC.
# Tested on: Mycobacterium avium
# Method: Minimum inhibitory concentration required against Mycobacterium avium isolate from patient number MAC100
# Type: functional

So what does the record say about MIC for "COc1ccc(C#CCOc2ccccc2C(=O)O)cc1Cc1cnc(N)nc1N" ?
> 32 mg/L

Now consider "COc1ccc(OCc2ccc(C(=O)O)cc2)cc1Cc1cnc(N)nc1N" and answer again.
> 32 mg/L

Also check "COc1ccc(C#CCOc2cccc(C(=O)O)c2)cc1Cc1cnc(N)nc1N"
> 32 mg/L
